Kindly supply the reported pIC50 values for the records listed here.
Tested on: CEM cells HIV-1 protection, formazan growth assay
experimental details: NCI AIDS Antiviral Assay
experimental parameters: measured here: growth of uninfected CEM cells
pIC50: −log10 of the molar value.

These recorded examples may help you get a feel for the data.
molecule: O=C(Nc1ccc(NC(=O)Nc2cc(C(=O)Nc3ccc(C4=NCCN4)cc3)ccc2C(=O)Nc2ccc(C3=NCCN3)cc2)cc1)Nc1cc(C(=O)Nc2ccc(C3=NCCN3)cc2)ccc1C(=O)Nc1ccc(C2=NCCN2)cc1
experimental endpoint: pIC50
assay result: < 4.00

molecule: CC(=O)OC1Cn2ccc[n+]2C1 (stereo not given)
experimental endpoint: pIC50
assay result: < 3.70

molecule: CCc1ccccc1NC(=O)C1=C(C)NC(C)=C(C(=O)Nc2c(CC)cccc2CC)C1c1ccc2c(c1)OCO2 (stereo not given)
experimental endpoint: pIC50
assay result: < 4.47

molecule: CN1N=C(c2ccccc2)c2cc(Cl)ccc2N=C1N/N=C/c1ccc(N(C)C)cc1
experimental endpoint: pIC50
assay result: < 3.70

molecule: COC1CCC(=O)N1CCn1c(SCc2ccccc2)nc2ccccc21 (stereo not given)
experimental endpoint: pIC50
assay result: < 4.03

molecule: CCOC(=O)C1=C(C)C(C(=O)OC)[C@]2(C)C(C(=O)OCC)=C(O)C(C(=O)OC)[C@]12C (stereo not given in full)
experimental endpoint: pIC50
assay result: < 3.90

Parameter requested: pIC50. Apply to each item below.
1. C=CCC12CC(O)C(O)CC1(O)OC(c1cc(OC)c(OC)c(OC)c1)C2C (stereo not given)
2. Cc1ccc2c(c1)CC1(Cc3cccc(C)c3C1=O)C2=O (stereo not given)
3. Cn1nccc2c(=O)n(C)c(=O)nc1-2
4. CCOC(=O)C(C)(C)Oc1ccc2c(=O)cc(-c3ccc(Cl)cc3)oc2c1
5. CN1C(=O)Cn2c(n[nH]c(=O)c2=O)-c2cc(Cl)ccc21
6. COc1cc(C)cc2ccc(Br)c(O)c12

Response:
< 3.70
< 3.70
< 3.70
< 4.73
< 3.52
< 3.70

Batch lookup, pIC50 per entry.
1. Nc1[nH]c(=S)nc2nc3c(c(-c4ccccc4)c12)CCCC3
2. O=C1CCCC12CCOC2=O (stereo not given)
3. Cc1cc(=O)oc2c(CNC(C(=O)O)C(C)O)c(O)ccc12 (stereo not given)

Response:
< 4.30
< 2.79
< 3.70

###

Test system: CEM cells HIV-1 protection, formazan growth assay
experimental details: NCI AIDS Antiviral Assay
experimental parameters: measured here: growth of uninfected CEM cells
experimental endpoint: IC50

compound: O=C1CCSSCCC(=O)NCCN1
assay result: > 22.4 µM

Working through the 4 compounds below one at a time, give IC50 for each.
1. CCOC(=O)C(C)P(=O)(OC)OC (stereo not given)
2. Cc1cn(C2CCN(c3ccccc3)O2)c(=O)[nH]c1=O (stereo not given)
3. COc1cc(-c2nn3c(C)c(-c4ccccc4)nc3s2)cc(OC)c1OC
4. Nc1ccc(/C=C/c2ccc3cccnc3c2)cc1

Response:
["> 200 µM", "> 200 µM", "> 200 µM", "> 200 µM"]

###

Test system: CEM cells HIV-1 protection, formazan growth assay
experimental details: NCI AIDS Antiviral Assay
experimental parameters: measured here: growth of uninfected CEM cells
pIC50: −log10 of the molar value.
experimental endpoint: pIC50

Please give pIC50, item by item, for the list that follows.
1. Cc1cc2c(cc1C)[n+](=O)c(C(=O)C/C(=N/NC(=O)CC#N)C(=O)Nc1ccccc1C(F)(F)F)c(C)n2[O-]
2. C/C(=C1/N=C(c2cc([N+](=O)[O-])ccc2Cl)N(c2ccc(Br)cc2)C1=O)c1ccc(N(CCC#N)CCC#N)cc1C
3. Brc1ccc(C=NC23CC4CC(CC(C4)C2)C3)cc1
4. NCCCS(=O)(=O)O
5. CC1=CN2C(c3ccc(Cl)cc3)=NON(c3ccc(C)cn3)C2C=C1 (stereo not given)

Response:
< 4.88
< 4.94
< 4.25
< 3.70
< 4.99

The following molecules each have a reported value; give each one's pIC50.
1. N#C/C(=C/n1c(=S)[nH]c2ccccc21)C(N)=O
2. COc1cc(Cc2nnc(N)nc2N)cc(OC)c1OC
3. c1ccc(SCc2ccc3c(c2)OCO3)cc1

Response:
1: < 3.70; 2: < 4.75; 3: < 4.11

Give measured pIC50 for every item shown.
1. CC1CC(C#N)=C2NCCN2C1=O (stereo not given)
2. C=CCN(N=O)C(=O)N(CCCCC(NC(C)=O)C(=O)NCc1ccccc1)Cc1ccccc1 (stereo not given)
3. CCCCCC=C(c1cc(Br)c(OC)c(Br)c1)c1cc(Br)c(OC)c(Br)c1
4. Cc1cccc(NC(=S)Nc2ccc(Cl)cc2)n1
5. NC1=CNC(=O)C1
6. CCOc1cc2ccc3c4cc(OC)c(OC)cc4cnc3c2cc1OCC
7. CC1=NN(c2ccccc2)C(=O)/C1=C1/C(=O)N(c2ccccc2)N=C1C
8. CC(=Nc1ccccc1C(=O)[O-])c1c([O-])ccc2c(C)cc(=O)oc12.[Ni+2].[OH3+]

Response:
1. < 3.70
2. < 4.55
3. < 3.82
4. < 3.70
5. < 3.86
6. < 4.44
7. < 3.70
8. < 5.60

Working through the 6 molecules below one at a time, give pIC50 for each.
1. CCC1(CC(=O)N(C)C)CCCN(C(=O)Oc2ccccc2)C1 (stereo not given)
2. Cc1cc(Cl)ccc1NC(=O)CCCC(=O)C1CCC/C1=N\NC(=O)CC#N (stereo not given)
3. CCOC(=O)C(NC(=O)c1ccccc1)(c1ccc(S(=O)(=O)Nc2onc(C)c2C)cc1)C(F)(F)F (stereo not given)
4. C[CH2][Ge]1([CH2]C)[CH2]CC2(CCN(CCCN(C)C)C2)C[CH2]1
5. O=P(O)(CN(C1CCCCC1)C1CCCCC1)CN(C1CCCCC1)C1CCCCC1
6. C/C(=N/NC(=S)N1CCN(C(=S)N/N=C(/C)c2ccccn2)CC1)c1ccccn1

Response:
1: < 4.50; 2: < 4.19; 3: < 3.70; 4: 5.86; 5: < 3.70; 6: 5.40
